system: HaCaT; assay: Cytotoxicity against human HaCaT cells after 24 hrs by neutral red dye uptake assay; format: cell-based; conditions: human, hacat
quantity-measured: IC05 (µg/mL)
Hi! Could you send only the number? It should be in µg/mL, unit omitted.

Would you please look over these solved cases?
CC(=O)c1c(O)c(C)c(O)c2c1OC1=CC(=O)/C(=C(/C)N[C@@H](CCCNC(=N)N)C(=O)O)C(=O)[C@@]12C = 16
CC(=O)c1c(O)c(C)c(O)c2c1OC1=CC(=O)/C(=C(/C)N[C@@H](Cc3ccc(O)cc3)C(=O)O)C(=O)[C@@]12C = 1.3
CC(=O)c1c(O)c(C)c(O)c2c1OC1=CC(=O)/C(=C(/C)NCC(=O)O)C(=O)[C@@]12C = 0.2

Input: Need IC05 of CC(=O)c1c(O)c(C)c(O)c2c1OC1=CC(=O)/C(=C(/C)N[C@@H](Cc3c[nH]cn3)C(=O)O)C(=O)[C@@]12C , thanks.
Output: 1.7

Input: Need IC05 of CC(=O)C1=C(O)C=C2Oc3c(C(C)=O)c(O)c(C)c(O)c3[C@@]2(C)C1=O [(+)-USNIC ACID] , thanks.
Output: 0.5

* * *

biological target: Neutrophil elastase (Homo sapiens); assay: Inhibition of human neutrophil elastase assessed as N-methoxysuccinyl-Ala-Ala-Pro-Val p-nitroanilide conversion to p-nitroaniline at 50 ug/ml after 1 hr by spectrophotometric analysis relative to control
quantity-measured: inhibition (%)
Hi! Could you send only the number? It should be in %, unit omitted.

Would you please look over these solved cases?
CC(=O)c1c(O)c(C)c(O)c2c1OC1=CC(=O)/C(=C(/C)NCCSSCCN/C(C)=C3\C(=O)C=C4Oc5c(C(C)=O)c(O)c(C)c(O)c5[C@@]4(C)C3=O)C(=O)[C@@]12C = 21.3
CC(=O)c1c(O)c(C)c(O)c2c1OC1=CC(=O)/C(=C(/C)NCCS)C(=O)[C@@]12C = 15.3
CC(=O)C1=C(O)C=C2Oc3c(C(C)=O)c(O)c(C)c(O)c3[C@@]2(C)C1=O [(+)-USNIC ACID] = 22.1
CC(=O)c1c(O)c(C)c(O)c2c1OC1=CC(=O)/C(=C(/C)N)C(=O)[C@@]12C = 13.3

Input: Need inhibition of CC(=O)c1c(O)c(C)c(O)c2c1OC1=CC(=O)/C(=C(/C)NCCCC(=O)O)C(=O)[C@@]12C , thanks.
Output: 25.1

* * *

organism: Bos taurus; assay: Inhibition of bovine hyaluronidase assessed as sodium hyaluronate conversion to N-acetylglucosamine at 50 ug/ml by spectrophotometric analysis relative to control
quantity-measured: inhibition (%)
Hi! Could you send only the number? It should be in %, unit omitted.

CC(=O)c1c(O)c(C)c(O)c2c1OC1=CC(=O)/C(=C(/C)N)C(=O)[C@@]12C = 35.3
CC(=O)c1c(O)c(C)c(O)c2c1OC1=CC(=O)/C(=C(/C)NCCSSCCN/C(C)=C3\C(=O)C=C4Oc5c(C(C)=O)c(O)c(C)c(O)c5[C@@]4(C)C3=O)C(=O)[C@@]12C = 10
CC(=O)C1=C(O)C=C2Oc3c(C(C)=O)c(O)c(C)c(O)c3[C@@]2(C)C1=O [(+)-USNIC ACID] = 14.4
CC(=O)c1c(O)c(C)c(O)c2c1OC1=CC(=O)/C(=C(/C)NCCS)C(=O)[C@@]12C = 10.2

Input: Need inhibition of CC(=O)c1c(O)c(C)c(O)c2c1OC1=CC(=O)/C(=C(/C)NCCCC(=O)O)C(=O)[C@@]12C , thanks.
Output: 25.8

* * *

// reported inhibition for each item listed
system: Hathewaya histolytica; assay: Inhibition of Clostridium histolyticum collagenase using N-[3-(2-Furyl)acryloyl]-Leu-Gly-Pro-Ala as substrate at 50 ug/ml after 15 mins by spectrophotometric analysis relative to control
Hi! Could you send only the number? It should be in %, unit omitted.

CC(=O)c1c(O)c(C)c(O)c2c1OC1=CC(=O)/C(=C(/C)NCCS)C(=O)[C@@]12C = 19.5

Input: Need inhibition of CC(=O)c1c(O)c(C)c(O)c2c1OC1=CC(=O)/C(=C(/C)NCCSSCCN/C(C)=C3\C(=O)C=C4Oc5c(C(C)=O)c(O)c(C)c(O)c5[C@@]4(C)C3=O)C(=O)[C@@]12C , thanks.
Output: 20.8

Input: Need inhibition of CC(=O)c1c(O)c(C)c(O)c2c1OC1=CC(=O)/C(=C(/C)N)C(=O)[C@@]12C , thanks.
Output: 20.7

Input: Need inhibition of CC(=O)C1=C(O)C=C2Oc3c(C(C)=O)c(O)c(C)c(O)c3[C@@]2(C)C1=O [(+)-USNIC ACID] , thanks.
Output: 27.1

Input: Need inhibition of CC(=O)c1c(O)c(C)c(O)c2c1OC1=CC(=O)/C(=C(/C)NCCCC(=O)O)C(=O)[C@@]12C , thanks.
Output: 21.4

* * *

tested on: HaCaT; assay: Cytotoxicity against human HaCaT cells after 24 hrs by neutral red dye uptake assay; assay type: cell-based; conditions: human, hacat
// reported IC05 for each item listed
Hi! Could you send only the number? It should be in µg/mL, unit omitted.

CC(=O)c1c(O)c(C)c(O)c2c1OC1=CC(=O)/C(=C(/C)NCCS)C(=O)[C@@]12C = 43
CC(=O)c1c(O)c(C)c(O)c2c1OC1=CC(=O)/C(=C(/C)NCCCC(=O)O)C(=O)[C@@]12C = 67

Input: Need IC05 of CC(=O)c1c(O)c(C)c(O)c2c1OC1=CC(=O)/C(=C(/C)NCCc3c[nH]c4ccccc34)C(=O)[C@@]12C , thanks.
Output: 2.5

Origin of the recorded values: ChEMBL document CHEMBL2390932
